# study.target: Cytochrome P450 2C19 (Homo sapiens)
# test: blockers of cytochrome P450 2C19 activity – biochemical, luminescence, ADME assay, primary screen (AID 778);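 note: plate controls were negative control wells for no effect and 2.5 mM tranylcypromine positive control for full effect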
# stated.conditions: CYP2C19 Supersomes, luciferin-H EGE luminescence, 30 min; at 5 µM; active compounds read high
The whole screen tested about 96,000 compounds, of which about 20,000 (21%) were called active. Not all results are given here.
assay.readout: inhibition

Check out these entries, answers already filled in.
Cc1cc(C(=O)COC(=O)CCCN2C(=O)c3ccccc3C2=O)c(C)n1C    -0.8% (inactive)
N/C(=N\c1nc2ccccc2o1)NC(=O)C(Cc1ccccc1)N1C(=O)c2ccccc2C1=O (stereo not drawn)    35.9% (inactive)
CC(NC(=O)C1CCC(CNc2c(N3CCOCC3)c(=O)c2=O)CC1)c1ccccc1 (stereo not drawn)    -2.1% (inactive)
COc1ccc(Cc2nnnn2CC(=O)O)cc1    17.8% (inactive)
CCC1Oc2ccc(Cl)cc2N(CC(=O)O)C1=O (stereo not drawn)    -3.7% (inactive)
COC(=O)Nc1ncc(CN2C(=O)c3ccccc3C2=O)s1    8.1% (inactive)

Value lookup for inhibition; key = CCC(C)c1ccc(O)c(/C=N/O)c1 (stereo not drawn)
-21.8% (inactive)

Value lookup for inhibition; key = C(=N\n1cnnc1)/c1cccnc1
-5.3% (inactive)

Value lookup for inhibition; key = Fc1ccc(-c2ccc(-c3nn4c(-c5ccco5)nnc4s3)o2)cc1
47.8% (inactive)

meta.source: PubChem BioAssay AID778
